Values were extracted from patent US20160362487A1.

Molecular target: T1, human IL-33 (R&D Systems, #3625-IL-010/CF) (human, UniProt O95760 112-270)
T1 sequence (looked up): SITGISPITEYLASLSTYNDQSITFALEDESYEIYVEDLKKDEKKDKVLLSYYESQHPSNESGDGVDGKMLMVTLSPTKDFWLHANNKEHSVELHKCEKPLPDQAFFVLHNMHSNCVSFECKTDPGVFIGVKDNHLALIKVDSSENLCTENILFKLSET
Assay: cell-based or functional assay
value.kind: IC50, inhibition of 10 pM hIL-33 activation of HEK293/hST2/NFkB-luciferase cells
I'd appreciate it if you included the unit after the number.

May I ask what IC50, inhibition of 10 pM hIL-33 activation of HEK293/hST2/NFkB-luciferase cells has been recorded for H4H9640P (antibody, human IgG4, V domains shown, Human IgG4 Fc (H4H)) VH: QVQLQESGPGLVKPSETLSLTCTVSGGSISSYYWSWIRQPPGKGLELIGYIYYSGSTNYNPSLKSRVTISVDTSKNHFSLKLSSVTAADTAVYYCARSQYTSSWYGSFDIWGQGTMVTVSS VL: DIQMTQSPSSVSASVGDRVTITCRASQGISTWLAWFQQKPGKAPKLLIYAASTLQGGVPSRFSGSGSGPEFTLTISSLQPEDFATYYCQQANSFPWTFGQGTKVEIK ?
3e-11 M
